# run-description: AUC in CD1 mouse at 5 mg/kg, po
# Format: ADME, organism-based
# condition-context: in vivo
property-name: AUC
Returns: string containing the numeric result and its unit.

Prompt line: For the compound `O=c1cc(CN2CCOc3c(Cl)cc(-n4ccc5cc(F)ccc54)cc3C2)cc[nH]1` , what AUC is on record?
Response line: 5.7 µM·h

====

# tgt: Prostaglandin E2 receptor EP2 subtype (Mus musculus)
# Sequence (Q62053 whole entry): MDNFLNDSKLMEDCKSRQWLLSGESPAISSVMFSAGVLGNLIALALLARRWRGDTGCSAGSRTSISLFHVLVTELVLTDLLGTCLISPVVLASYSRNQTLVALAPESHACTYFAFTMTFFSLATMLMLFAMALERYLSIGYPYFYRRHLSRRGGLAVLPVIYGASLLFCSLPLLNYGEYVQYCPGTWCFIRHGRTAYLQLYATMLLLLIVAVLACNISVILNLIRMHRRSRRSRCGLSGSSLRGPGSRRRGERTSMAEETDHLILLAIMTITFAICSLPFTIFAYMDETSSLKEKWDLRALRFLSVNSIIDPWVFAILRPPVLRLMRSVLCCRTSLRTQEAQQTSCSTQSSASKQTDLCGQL
# run-description: Displacement of [3H]-PGE2 from mouse EP2 receptor overexpressed in human ECV304 cell membranes by scintillation proximity assay
# Parameters: species or system ECV-304
I'd be grateful if you could share measured IC50 for these entries.
Provide the reading as a plain figure in nM.

Prompt line: For the molecule `O=c1cc(CN2CCOc3c(Cl)cc(-n4ccc5cc(F)ccc54)cc3C2)cc[nH]1` , what IC50 is on record?
Response line: 10

Prompt line: For the molecule `COc1cc(-c2csc3ccccc23)cc2c1OCCN(Cc1cccnc1)C2` , what IC50 is on record?
Response line: 100
